tested_system: Alpha-1D adrenergic receptor (Homo sapiens)
Sequence (P25100 whole entry): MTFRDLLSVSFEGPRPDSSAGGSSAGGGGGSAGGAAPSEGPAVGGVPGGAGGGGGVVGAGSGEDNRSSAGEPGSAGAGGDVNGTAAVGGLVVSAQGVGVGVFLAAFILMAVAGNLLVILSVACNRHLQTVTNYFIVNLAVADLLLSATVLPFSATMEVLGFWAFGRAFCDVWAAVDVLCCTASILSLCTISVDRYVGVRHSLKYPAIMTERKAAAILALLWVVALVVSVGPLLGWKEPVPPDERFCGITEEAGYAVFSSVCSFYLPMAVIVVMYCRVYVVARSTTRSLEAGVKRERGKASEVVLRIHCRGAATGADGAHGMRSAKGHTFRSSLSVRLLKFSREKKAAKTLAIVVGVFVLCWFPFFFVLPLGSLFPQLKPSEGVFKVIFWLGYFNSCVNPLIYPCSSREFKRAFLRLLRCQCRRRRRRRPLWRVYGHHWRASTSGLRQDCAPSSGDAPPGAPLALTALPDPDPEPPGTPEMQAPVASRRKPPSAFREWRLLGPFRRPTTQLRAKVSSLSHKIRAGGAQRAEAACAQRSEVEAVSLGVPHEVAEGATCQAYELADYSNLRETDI
procedure_summary: Displacement of [3H]prazosin from recombinant human alpha-1d adrenergic receptor expressed in CHO cell membranes after 30 mins by liquid scintillation counting method
property_label: Ki (nM)
Write the value in nM as a bare number.

Cc1ccccc1OCCNCC1COCC(c2ccccc2)(c2ccccc2)O1 (racemic)    5.01

Which Ki is reported with Alpha-1D adrenergic receptor (Homo sapiens) for this entry: Oc1ccccc1OCCNCC1COCC(c2ccccc2)(c2ccccc2)O1 (racemic) ? 77.6

Try this molecule next: O=[N+]([O-])c1ccccc1OCCNCC1COCC(c2ccccc2)(c2ccccc2)O1 (racemic) 6.61

----------
Listing of entries alongside the reported pD2.
tested_system: 5-hydroxytryptamine receptor 1A (Homo sapiens)
procedure_summary: Agonist activity at recombinant human 5HT1A receptor expressed in human HeLa cell membranes assessed as stimulation of [35S]GTPgammaS binding preincubated for 20 mins followed by [35S]GTPgammaS addition measured after 30 mins by liquid scintillation counting method
Assay type: functional
I'd appreciate a reply containing only the number, no unit.

COc1ccccc1OCCNC[C@H]1COCC(c2ccccc2)(c2ccccc2)O1    9.19
COc1cccc(OC)c1OCCNC[C@@H]1COCC(c2ccccc2)(c2ccccc2)O1    5.88
COc1ccccc1N1CCN(CCN2C(=O)CC3(CCCC3)CC2=O)CC1    9.27

Which pD2 is reported with 5-hydroxytryptamine receptor 1A (Homo sapiens) for this entry: Cc1ccccc1OCCNCC1COCC(c2ccccc2)(c2ccccc2)O1 (racemic) ? 8.73

Try this molecule next: Oc1ccccc1OCCNCC1COCC(c2ccccc2)(c2ccccc2)O1 (racemic) 7.8
